target entity: T1, 4H3134-AA
T1 chain: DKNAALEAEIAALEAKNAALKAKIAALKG
method: two-hybrid library CCmax;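 also: natural log of median RNA to DNA barcode read ratio; higher means stronger binding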
condition summary: mean of both orientations
experimental endpoint: interaction score

• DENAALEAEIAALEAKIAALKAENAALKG [4H1068-AA] = -0.167
• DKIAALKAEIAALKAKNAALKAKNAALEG [4H2687-AA] = -1.43
• DEIAALEAKIAALEAENAALEAKIAALKG [4H278-AA] = 1.9
• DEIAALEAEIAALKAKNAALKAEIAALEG [4H121-AA] = 0.777
• DKIAALKAKIAALEAKNAALKAEIAALEG [4H2873-AA] = 1.06
• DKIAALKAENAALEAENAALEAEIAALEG [4H2705-AA] = -0.0637
• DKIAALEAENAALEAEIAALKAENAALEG [4H2187-AA] = 1.47
• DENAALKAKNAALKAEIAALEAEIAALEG [4H1985-AA] = -0.682
